Hello, the source for this data is patent US20240002354A1, in case you need it.

# TARGET_SYSTEM: GPR40 (Homo sapiens)
# Construct: expressed in transfected cells
# MEASUREMENT_NOTES: IP1 accumulation assay (Cisbio IP-One HTRF) in HEK293 cells stably expressing GPR40
# Format: cell-based
# TEST_SETTINGS: HEK293 cells stably expressing GPR40, 37° C. for 2 hours, % Effect relative to AMG-1638 positive control
pEC50: −log10 of the molar value.

MOLECULE | pEC50
CCCCCCc1cn(CCCCCOC(c2cc(COc3cccc([C@@H](CC(=O)O)C4CC4)c3)ccc2-c2cc(OC)ccc2F)C(C)(C)C)nn1 (stereo partly drawn) | 7.30 to 9.00
CC[C@H](CC(=O)O)c1cccc(OCc2ccc(-c3cc(OC)ccc3F)c(OCc3cn(CCCCCCCCCCCCCCCCCC(=O)O)nn3)c2)c1 | ≤ 5.30
COC(=O)CCCCCCCCCCCCCCCCCc1cn(CCCCCOC(c2cc(COc3cccc([C@@H](CC(=O)O)C4CC4)c3)ccc2-c2cc(OC)ccc2F)C(C)(C)C)nn1 (stereo partly drawn) | ≤ 5.30

====

# TARGET_SYSTEM: UniProtKB O14842
# MEASUREMENT_NOTES: IP1 accumulation assay (Cisbio IP-One HTRF) in HEK293 cells stably expressing GPR40
# TEST_SETTINGS: HEK293 cells stably expressing GPR40, 37° C. for 2 hours, % Effect relative to AMG-1638 positive control
Each entry below carries its recorded EC50.
READOUT: EC50

MOLECULAR_STRING | TARGET_SYSTEM | READOUT | READING
CCCCCCn1cc(COc2ccc(OC(F)(F)F)c(CN3CCC([C@H]4CCc5ccc([C@H](C6CC6)[C@H](C)C(=O)O)cc5O4)CC3)c2)nn1 | UniProtKB O14842 | EC50 | 50 to 250 nM
CCCCCCn1cc(COCC(C)(C)c2cc(COc3cccc([C@@H](CC(=O)O)C4CC4)c3)ccc2-c2cc(OC)ccc2F)nn1 | UniProtKB O14842 | EC50 | 250 to 1000 nM
CCCCCCn1cc(C(C)(C)c2cc(COc3cccc([C@@H](CC(=O)O)C4CC4)c3)ccc2-c2cc(OC)ccc2F)nn1 | UniProtKB O14842 | EC50 | 250 to 1000 nM

====

# TARGET_SYSTEM: GPR40 (Homo sapiens, UniProt O14842)
# Sequence (O14842 whole entry): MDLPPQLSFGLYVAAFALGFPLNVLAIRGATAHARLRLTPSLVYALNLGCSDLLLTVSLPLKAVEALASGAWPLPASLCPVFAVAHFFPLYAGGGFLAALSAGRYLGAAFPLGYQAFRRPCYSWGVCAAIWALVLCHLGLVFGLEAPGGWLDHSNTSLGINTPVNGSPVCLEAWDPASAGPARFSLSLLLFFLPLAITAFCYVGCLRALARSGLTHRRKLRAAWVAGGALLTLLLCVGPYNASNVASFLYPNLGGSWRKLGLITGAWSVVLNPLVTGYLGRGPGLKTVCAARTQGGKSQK
# MEASUREMENT_NOTES: IP1 accumulation assay (Cisbio IP-One HTRF) in HEK293 cells stably expressing GPR40
# TEST_SETTINGS: HEK293 cells stably expressing GPR40, 37° C. for 2 hours, % Effect relative to AMG-1638 positive control
# Protocol: IP1 accumulation assay was used to evaluate the potency of compounds. […] Assay plate was incubated at room temperature for 60 min and then read at 665 nm/615 nm on an Envision plate reader (PerkinElmer). […] Dose curve was fitted and EC50 of each compound was calculated by using XLFit.
Each entry below carries its recorded EC50.
READOUT: EC50

COMPOUND | READING
C#CCOCC(C)(C)c1cc(COc2cccc([C@@H](CC(=O)O)C3CC3)c2)ccc1-c1cc(OC)ccc1F [Compound No. 228] | 50 to 250 nM
CCCCCCc1cn(C(C)(C)c2cc(COc3cccc([C@@H](CC(=O)O)C4CC4)c3)ccc2-c2cc(OC)ccc2F)nn1 [Compound No. 218] | 250 to 1000 nM
CCCCCCc1cn(Cc2ccc(OC(F)(F)F)c(CN3CCC([C@H]4CCc5ccc([C@H](C6CC6)[C@H](C)C(=O)O)cc5O4)CC3)c2)nn1 [compound 195] | 1 to 50 nM
COC(=O)CCCCCCCCCCCCCCCCCn1cc(COCC(C)(C)c2cc(COc3cccc([C@@H](CC(=O)O)C4CC4)c3)ccc2-c2cc(OC)ccc2F)nn1 [Compound No. 231] | ≥ 5000 nM
COc1ccc(F)c(-c2ccc(COc3cccc([C@@H](CC(=O)O)C4CC4)c3)cc2C(C)(C)COCc2cn(CCCCCCCCCCCCCCCCCC(=O)O)nn2)c1 [Compound No. 230] | 250 to 1000 nM
C#CCOc1cc(COc2cccc([C@H](CC)CC(=O)O)c2)ccc1-c1cc(OC)ccc1F [Compound No. 211] | 1000 to 5000 nM
COc1ccc(F)c(-c2ccc(COc3cccc([C@@H](CC(=O)O)C4CC4)c3)cc2C(OCCCCCn2cc(CCCCCCCCCCCCCCCCCC(=O)O)nn2)C(C)(C)C)c1 (stereo partly drawn) [Compound No. 234] | 250 to 1000 nM
COc1ccc(F)c(-c2ccc(COc3cccc([C@@H](CC(=O)O)C4CC4)c3)cc2CC(C)(C)CN=[N+]=[N-])c1 [Compound No. 237] | 1 to 50 nM
COc1ccc(F)c(-c2ccc(COc3cccc([C@@H](CC(=O)O)C4CC4)c3)cc2C(C)(C)CN=[N+]=[N-])c1 [Compound No. 224] | 1 to 50 nM
CCCCCCc1cn(-c2ccc(OC(F)(F)F)c(CN3CCC([C@H]4CCc5ccc([C@H](C6CC6)[C@H](C)C(=O)O)cc5O4)CC3)c2)nn1 [compound 188] | 1 to 50 nM
COc1ccc(F)c(-c2ccc(COc3cccc([C@@H](CC(=O)O)C4CC4)c3)cc2C(C)(C)N=[N+]=[N-])c1 [Compound No. 216] | 1 to 50 nM
COc1ccc2cc(CN=[N+]=[N-])oc2c1CN1CCC([C@H]2CCc3ccc([C@H](C4CC4)[C@H](C)C(=O)O)cc3O2)CC1 [compound 207] | ≥ 5000 nM
